compounds and their reported inhibition
systemName: 5-hydroxytryptamine receptor 2A (Homo sapiens)
Sequence (P28223 whole entry): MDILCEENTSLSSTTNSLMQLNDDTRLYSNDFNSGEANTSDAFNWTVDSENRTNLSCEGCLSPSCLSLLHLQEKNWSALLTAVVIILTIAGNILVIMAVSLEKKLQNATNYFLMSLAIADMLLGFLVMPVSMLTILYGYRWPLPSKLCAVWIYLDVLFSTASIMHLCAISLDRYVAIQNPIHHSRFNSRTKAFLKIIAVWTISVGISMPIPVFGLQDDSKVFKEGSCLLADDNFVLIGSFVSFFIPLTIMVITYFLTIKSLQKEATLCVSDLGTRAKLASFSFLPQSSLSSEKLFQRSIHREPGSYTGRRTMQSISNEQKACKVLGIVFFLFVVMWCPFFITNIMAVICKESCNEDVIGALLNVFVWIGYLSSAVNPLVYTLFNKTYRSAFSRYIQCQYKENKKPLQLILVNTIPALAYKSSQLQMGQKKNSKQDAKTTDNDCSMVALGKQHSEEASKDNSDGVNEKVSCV
assayName: Inhibitory activity against human 5-HT2A receptor at 1 uM concentration
Express it in %; write the number only.

{"compound": "Cc1cc(N2CCN(C)CC2)nc2ccc(NC(=O)COc3ccc(C(F)(F)F)cc3)cc12", "propertyLabel": "inhibition", "observedResult": 27}
{"compound": "Cc1cc(N2CCOCC2)nc2ccc(NC(=O)COc3ccc(C(F)(F)F)cc3)cc12", "propertyLabel": "inhibition", "observedResult": 27}
{"compound": "Cc1cc(NC(C)C)nc2ccc(NC(=O)COc3ccc(C(F)(F)F)cc3)cc12", "propertyLabel": "inhibition", "observedResult": 18}

Could you now look at the following compound, please?
Query :: Request the reported inhibition associated with "Cc1cc(N2CCCC2)nc2ccc(NC(=O)COc3ccc(C(F)(F)F)cc3)cc12"
Result :: 11

Source of measurements: ChEMBL document CHEMBL1137142
